The values you see were collected from the supplement of paper PMC11732987.

- assayed target: USP4 (UniProt Q13107)
- Sequence (Q13107 whole entry, the tested form may be a part): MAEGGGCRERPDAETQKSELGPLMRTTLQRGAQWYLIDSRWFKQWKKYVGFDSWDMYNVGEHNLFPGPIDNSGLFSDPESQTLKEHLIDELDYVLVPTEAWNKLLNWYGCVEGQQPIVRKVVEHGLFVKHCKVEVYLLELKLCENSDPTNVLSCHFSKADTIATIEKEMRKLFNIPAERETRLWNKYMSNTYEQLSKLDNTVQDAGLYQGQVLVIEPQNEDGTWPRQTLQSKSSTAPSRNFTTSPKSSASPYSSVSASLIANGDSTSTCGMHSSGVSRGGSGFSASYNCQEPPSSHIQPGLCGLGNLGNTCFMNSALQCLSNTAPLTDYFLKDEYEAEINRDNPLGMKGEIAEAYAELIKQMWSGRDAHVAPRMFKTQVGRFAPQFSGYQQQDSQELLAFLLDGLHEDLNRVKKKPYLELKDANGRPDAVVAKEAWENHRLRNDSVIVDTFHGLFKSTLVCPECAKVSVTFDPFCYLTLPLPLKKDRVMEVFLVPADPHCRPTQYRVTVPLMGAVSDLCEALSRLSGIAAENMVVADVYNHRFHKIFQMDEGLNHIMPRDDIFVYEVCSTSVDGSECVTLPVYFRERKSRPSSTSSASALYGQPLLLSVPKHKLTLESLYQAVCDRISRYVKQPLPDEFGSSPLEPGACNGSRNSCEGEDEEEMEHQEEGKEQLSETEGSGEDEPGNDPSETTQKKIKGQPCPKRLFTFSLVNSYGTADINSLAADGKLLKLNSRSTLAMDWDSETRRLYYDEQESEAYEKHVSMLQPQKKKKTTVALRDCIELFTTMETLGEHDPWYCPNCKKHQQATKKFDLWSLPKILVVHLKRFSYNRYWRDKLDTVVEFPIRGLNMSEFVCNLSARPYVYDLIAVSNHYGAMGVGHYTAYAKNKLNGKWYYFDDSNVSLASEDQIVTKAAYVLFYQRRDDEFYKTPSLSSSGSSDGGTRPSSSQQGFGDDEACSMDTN
- protocol: log2 ratio of Biotin-Ahx-Ub-VS probe labelling (fragment/DMSO); higher = less target engagement (more negative = stronger competition), active = hit call of the paper (q ≤ 0.05, log2 ratio ≤ -1)
- stated conditions: compound concentration: 200 uM; treatment time: 3 h
Classes used: active, inactive

{"compound": "Cl.O=C(CCl)N1CCN(Cc2ccccc2)CC1", "class": "inactive"}
{"compound": "O=C(CCl)N1CCC(S(=O)(=O)c2ccc(F)cc2)CC1", "class": "inactive"}
{"compound": "Cc1conc1C1CN(C(=O)CCl)C1", "class": "inactive"}
{"compound": "Cc1nc(CC2CCN(C(=O)CCl)CC2)no1", "class": "inactive"}
{"compound": "O=C(CCl)N1CC=C(c2c[nH]c3ccccc23)CC1", "class": "active"}
{"compound": "C/C(=C\\CNC(=O)CCl)c1cnn(C)c1.Cl", "class": "inactive"}
{"compound": "O=C(CCl)N1CCc2nc[nH]c2C1c1ccc(Cl)cc1 (stereo not drawn)", "class": "inactive"}
{"compound": "CC(=O)C1CCCCN1C(=O)CCl (stereo not drawn)", "class": "inactive"}
{"compound": "Cl.O=C(CCl)NCc1ccnc(Oc2ccccc2F)c1", "class": "inactive"}
{"compound": "Cc1cccc(N(CCC#N)C(=O)CCl)c1C", "class": "inactive"}
{"compound": "O=C(CCl)NCCc1cccc2ccccc12", "class": "inactive"}
{"compound": "CC(NC(=O)CCl)c1csc(-c2ccccc2)n1.Cl (stereo not drawn)", "class": "inactive"}
{"compound": "CCCn1nccc1NC(=O)CCl", "class": "inactive"}

###

Each record here notes measured log2 ratio of Biotin-Ahx-Ub-VS probe labelling.
- assayed target: USP25 (UniProt Q9UHP3)
- protocol: log2 ratio of Biotin-Ahx-Ub-VS probe labelling (fragment/DMSO); higher = less target engagement (more negative = stronger competition), active = hit call of the paper (q ≤ 0.05, log2 ratio ≤ -1)
- stated conditions: compound concentration: 200 uM; treatment time: 3 h
readout label: log2 ratio of Biotin-Ahx-Ub-VS probe labelling

{"molecule": "O=C(CCl)NCCc1ccc(F)cc1", "measurement": "-0.326 (inactive)"}
{"molecule": "CC1CCc2onc(CNC(=O)CCl)c2C1 (configuration not stated)", "measurement": "0.00198 (inactive)"}
{"molecule": "O=C(CCl)NC(Cn1ccccc1=O)c1ccccc1 (configuration not stated)", "measurement": "-0.417 (inactive)"}
{"molecule": "O=C(CCl)NC1CCN(C(=O)C2CCCCC2)CC1", "measurement": "-0.158 (inactive)"}
{"molecule": "O=C(CCl)N1CCCCC12CCOCC2", "measurement": "-0.341 (inactive)"}
{"molecule": "CN(C)C(=O)c1ccc(NC(=O)CCl)cc1", "measurement": "-1.1 (active)"}
{"molecule": "O=C(CCl)NCC(=O)N1CCCC1", "measurement": "0.037 (inactive)"}

###

- assayed target: USP24 (UniProt Q9UPU5)
- Sequence (Q9UPU5 whole entry, the tested form may be a part): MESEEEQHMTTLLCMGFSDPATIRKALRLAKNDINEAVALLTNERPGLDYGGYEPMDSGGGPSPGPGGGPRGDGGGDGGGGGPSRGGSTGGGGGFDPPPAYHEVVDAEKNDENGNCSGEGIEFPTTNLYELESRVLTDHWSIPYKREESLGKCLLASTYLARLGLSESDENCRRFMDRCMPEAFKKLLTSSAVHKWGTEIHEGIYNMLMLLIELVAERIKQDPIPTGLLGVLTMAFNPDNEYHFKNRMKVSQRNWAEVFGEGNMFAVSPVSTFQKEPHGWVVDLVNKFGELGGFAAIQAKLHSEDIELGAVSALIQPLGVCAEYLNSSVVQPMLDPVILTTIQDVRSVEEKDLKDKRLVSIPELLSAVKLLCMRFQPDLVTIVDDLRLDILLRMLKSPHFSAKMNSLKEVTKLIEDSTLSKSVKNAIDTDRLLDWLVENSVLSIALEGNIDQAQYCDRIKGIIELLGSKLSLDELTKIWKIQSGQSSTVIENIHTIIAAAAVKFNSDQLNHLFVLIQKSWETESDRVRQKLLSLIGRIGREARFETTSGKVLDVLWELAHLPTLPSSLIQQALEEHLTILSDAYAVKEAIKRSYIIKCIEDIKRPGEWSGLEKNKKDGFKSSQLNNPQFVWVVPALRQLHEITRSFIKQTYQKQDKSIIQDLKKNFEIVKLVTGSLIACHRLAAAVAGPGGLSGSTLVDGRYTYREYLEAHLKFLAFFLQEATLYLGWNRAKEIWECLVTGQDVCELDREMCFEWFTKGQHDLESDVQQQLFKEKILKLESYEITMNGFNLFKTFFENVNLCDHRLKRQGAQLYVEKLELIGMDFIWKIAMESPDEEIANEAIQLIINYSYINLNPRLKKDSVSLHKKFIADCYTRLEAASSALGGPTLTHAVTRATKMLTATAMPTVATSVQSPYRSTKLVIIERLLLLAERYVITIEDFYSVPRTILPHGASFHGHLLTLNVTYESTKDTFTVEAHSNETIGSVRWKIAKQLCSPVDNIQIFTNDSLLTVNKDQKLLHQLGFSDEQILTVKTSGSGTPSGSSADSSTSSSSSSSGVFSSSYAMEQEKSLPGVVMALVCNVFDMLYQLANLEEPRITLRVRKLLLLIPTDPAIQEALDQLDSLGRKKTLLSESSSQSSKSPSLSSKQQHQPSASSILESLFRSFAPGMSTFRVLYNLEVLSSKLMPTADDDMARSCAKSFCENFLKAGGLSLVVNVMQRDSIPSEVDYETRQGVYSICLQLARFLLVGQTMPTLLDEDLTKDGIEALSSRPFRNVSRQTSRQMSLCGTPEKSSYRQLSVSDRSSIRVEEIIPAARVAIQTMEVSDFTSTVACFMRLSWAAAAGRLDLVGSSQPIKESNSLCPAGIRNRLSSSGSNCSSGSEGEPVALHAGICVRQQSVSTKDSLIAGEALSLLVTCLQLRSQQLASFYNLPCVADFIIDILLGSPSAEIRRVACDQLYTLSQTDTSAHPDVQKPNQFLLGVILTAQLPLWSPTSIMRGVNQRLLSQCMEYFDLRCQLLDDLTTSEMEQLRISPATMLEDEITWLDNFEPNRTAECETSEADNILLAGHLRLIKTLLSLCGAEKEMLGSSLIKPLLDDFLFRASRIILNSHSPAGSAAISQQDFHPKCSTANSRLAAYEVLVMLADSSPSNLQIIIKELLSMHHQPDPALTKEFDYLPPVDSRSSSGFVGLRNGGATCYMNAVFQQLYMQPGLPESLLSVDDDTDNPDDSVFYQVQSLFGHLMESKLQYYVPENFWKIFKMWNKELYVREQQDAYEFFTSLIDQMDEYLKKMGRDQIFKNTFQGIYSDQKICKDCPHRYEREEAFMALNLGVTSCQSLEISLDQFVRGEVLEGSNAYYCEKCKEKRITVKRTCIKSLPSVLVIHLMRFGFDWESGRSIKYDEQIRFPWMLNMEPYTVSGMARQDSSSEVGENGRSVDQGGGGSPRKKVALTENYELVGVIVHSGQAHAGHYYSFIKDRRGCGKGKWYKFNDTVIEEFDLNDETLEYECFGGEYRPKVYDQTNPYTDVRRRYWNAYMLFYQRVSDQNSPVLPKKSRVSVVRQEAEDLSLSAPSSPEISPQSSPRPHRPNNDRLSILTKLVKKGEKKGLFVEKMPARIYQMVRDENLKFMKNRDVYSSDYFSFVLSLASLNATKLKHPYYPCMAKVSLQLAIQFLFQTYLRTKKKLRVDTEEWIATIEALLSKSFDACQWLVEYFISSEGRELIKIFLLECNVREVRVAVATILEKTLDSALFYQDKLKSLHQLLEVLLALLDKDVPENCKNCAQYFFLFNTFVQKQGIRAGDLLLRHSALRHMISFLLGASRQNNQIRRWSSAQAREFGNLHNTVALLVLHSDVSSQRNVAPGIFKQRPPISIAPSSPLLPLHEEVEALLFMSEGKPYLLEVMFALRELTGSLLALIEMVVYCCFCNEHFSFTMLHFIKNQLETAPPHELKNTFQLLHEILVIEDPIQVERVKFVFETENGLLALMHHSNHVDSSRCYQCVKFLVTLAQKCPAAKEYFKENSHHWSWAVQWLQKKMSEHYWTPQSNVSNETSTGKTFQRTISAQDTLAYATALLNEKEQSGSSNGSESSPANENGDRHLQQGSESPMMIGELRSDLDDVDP
- protocol: log2 ratio of Biotin-Ahx-Ub-VS probe labelling (fragment/DMSO); higher = less target engagement (more negative = stronger competition), active = hit call of the paper (q ≤ 0.05, log2 ratio ≤ -1)
- stated conditions: compound concentration: 200 uM; treatment time: 3 h
readout label: log2 ratio of Biotin-Ahx-Ub-VS probe labelling

{"compound": "Cn1cc(CN(Cc2ccc(Cl)cc2)C(=O)CCl)cn1", "measurement": "-1.49 (active)"}
{"compound": "O=C(CCl)N1c2ccccc2NC(=O)C12CCCC2", "measurement": "-2.66 (active)"}
{"compound": "CC1(NC(=O)CCl)CCS(=O)(=O)C1 (configuration not stated)", "measurement": "-0.659 (inactive)"}
{"compound": "Cl.O=C(CCl)N1CCN(Cc2ccccc2)CC1", "measurement": "-0.611 (inactive)"}
{"compound": "O=C(CCl)N(C1CCCC1)C1CCS(=O)(=O)C1 (configuration not stated)", "measurement": "-0.274 (inactive)"}
{"compound": "CN1c2ccccc2C(NC(=O)CCl)CS1(=O)=O (configuration not stated)", "measurement": "-0.201 (inactive)"}
{"compound": "O=C(CCl)N1CCC(c2ccn[nH]2)C1 (configuration not stated)", "measurement": "-0.326 (inactive)"}
{"compound": "Cc1cccn2cc(CCNC(=O)CCl)nc12.Cl", "measurement": "-0.29 (inactive)"}
{"compound": "O=C(CCl)Nc1ccccc1C(F)(F)F", "measurement": "-0.445 (inactive)"}
{"compound": "Cc1noc(N2CCN(C(=O)CCl)CC2)n1.Cl", "measurement": "-0.00876 (inactive)"}
{"compound": "O=C(CCl)NCc1cccc(N2CCCC2=O)c1", "measurement": "0.00291 (inactive)"}
{"compound": "Cc1conc1C1CN(C(=O)CCl)C1", "measurement": "-1.11 (active)"}

###

- assayed target: OTUD7B (UniProt Q6GQQ9)
- Sequence (Q6GQQ9 whole entry, the tested form may be a part): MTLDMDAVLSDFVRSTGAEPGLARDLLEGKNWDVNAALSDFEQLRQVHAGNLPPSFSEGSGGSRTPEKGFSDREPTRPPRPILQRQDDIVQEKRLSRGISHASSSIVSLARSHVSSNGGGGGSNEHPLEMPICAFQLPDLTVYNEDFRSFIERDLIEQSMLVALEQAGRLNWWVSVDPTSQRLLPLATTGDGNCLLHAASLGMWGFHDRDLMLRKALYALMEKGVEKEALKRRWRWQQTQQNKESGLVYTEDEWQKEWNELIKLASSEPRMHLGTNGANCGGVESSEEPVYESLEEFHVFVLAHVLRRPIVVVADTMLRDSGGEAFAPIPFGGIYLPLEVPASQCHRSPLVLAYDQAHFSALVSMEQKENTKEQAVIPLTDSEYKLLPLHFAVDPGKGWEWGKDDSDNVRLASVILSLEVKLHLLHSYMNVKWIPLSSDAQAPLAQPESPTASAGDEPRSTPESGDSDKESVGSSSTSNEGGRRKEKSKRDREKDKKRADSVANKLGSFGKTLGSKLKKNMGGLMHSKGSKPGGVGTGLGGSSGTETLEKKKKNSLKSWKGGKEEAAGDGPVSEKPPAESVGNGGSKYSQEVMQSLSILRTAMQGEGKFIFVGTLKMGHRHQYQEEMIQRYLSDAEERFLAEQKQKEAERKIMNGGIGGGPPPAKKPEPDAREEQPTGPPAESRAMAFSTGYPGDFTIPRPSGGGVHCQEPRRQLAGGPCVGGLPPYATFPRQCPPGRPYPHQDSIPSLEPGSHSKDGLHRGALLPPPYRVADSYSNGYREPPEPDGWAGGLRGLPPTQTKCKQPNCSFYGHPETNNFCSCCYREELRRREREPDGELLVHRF
- protocol: log2 ratio of Biotin-Ahx-Ub-VS probe labelling (fragment/DMSO); higher = less target engagement (more negative = stronger competition), active = hit call of the paper (q ≤ 0.05, log2 ratio ≤ -1)
- stated conditions: compound concentration: 200 uM; treatment time: 3 h
Overview of recorded log2 ratio of Biotin-Ahx-Ub-VS probe labelling for various molecules
readout label: log2 ratio of Biotin-Ahx-Ub-VS probe labelling

{"molecule": "Cc1cc(Cl)ccc1NC(=O)CCl", "measurement": -0.649}
{"molecule": "Cc1ccc(CN(C)C(=O)CCl)o1", "measurement": -0.158}
{"molecule": "Cc1ccc(CC(NC(=O)CCl)c2ccccn2)cc1.Cl (centres undefined)", "measurement": -0.295}
{"molecule": "Cc1nnc(C(NC(=O)CCl)c2ccccc2)n1C (centres undefined)", "measurement": 0.355}
{"molecule": "O=C(CCl)N1CCC(C(=O)N2CCCCCC2)CC1", "measurement": -0.19}
{"molecule": "Cc1ncsc1CCNC(=O)CCl", "measurement": -0.157}
{"molecule": "O=C(CCl)N1CCN(c2nc3ccccc3o2)CC1", "measurement": -0.25}
{"molecule": "O=C(CCl)Nc1cc2c(cc1Cl)OCCCO2", "measurement": -0.399}
{"molecule": "N#Cc1ccc(Cl)cc1NC(=O)CCl", "measurement": -1.73}
{"molecule": "CN(C)C(=O)c1ccc(NC(=O)CCl)cc1", "measurement": -0.664}
{"molecule": "O=C(O)C1Cc2ccccc2CN1C(=O)CCl (centres undefined)", "measurement": -0.732}
{"molecule": "CN(CCC(O)c1ccc(Br)cc1)C(=O)CCl (centres undefined)", "measurement": -1.37}
{"molecule": "O=C(CCl)N1CCN2C(=O)CCC2C1 (centres undefined)", "measurement": -0.49}
{"molecule": "O=C(CCl)Nc1cccc(C(=O)N2CCSCC2)c1", "measurement": -0.71}

###

- assayed target: USP22 (UniProt Q9UPT9)
- Sequence (Q9UPT9 whole entry, the tested form may be a part): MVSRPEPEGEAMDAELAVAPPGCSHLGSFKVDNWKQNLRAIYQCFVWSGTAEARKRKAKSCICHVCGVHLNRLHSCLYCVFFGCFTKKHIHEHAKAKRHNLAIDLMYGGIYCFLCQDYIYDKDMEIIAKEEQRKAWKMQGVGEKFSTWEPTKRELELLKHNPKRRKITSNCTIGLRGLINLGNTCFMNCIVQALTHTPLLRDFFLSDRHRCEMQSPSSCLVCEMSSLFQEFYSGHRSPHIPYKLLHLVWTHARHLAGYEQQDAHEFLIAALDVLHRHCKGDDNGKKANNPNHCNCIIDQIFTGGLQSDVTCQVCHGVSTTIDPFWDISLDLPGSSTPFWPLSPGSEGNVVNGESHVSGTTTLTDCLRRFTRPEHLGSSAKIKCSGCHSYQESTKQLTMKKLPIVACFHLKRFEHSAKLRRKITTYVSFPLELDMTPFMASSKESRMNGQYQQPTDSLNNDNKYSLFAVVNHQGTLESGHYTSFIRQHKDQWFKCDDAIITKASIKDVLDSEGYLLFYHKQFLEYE
- protocol: log2 ratio of Biotin-Ahx-Ub-VS probe labelling (fragment/DMSO); higher = less target engagement (more negative = stronger competition), active = hit call of the paper (q ≤ 0.05, log2 ratio ≤ -1)
- stated conditions: compound concentration: 200 uM; treatment time: 3 h
Label scheme, based on log2 ratio of Biotin-Ahx-Ub-VS probe labelling: low interval: < -0.2; middle interval: ≥ -0.2 and < 0.01; high interval: ≥ 0.01

{"compound": "O=C(CCl)N1CCN2C(=O)CCC2C1 (stereo unspecified)", "class": "middle interval"}
{"compound": "Cc1ccc(CC(CO)CNC(=O)CCl)cc1 (stereo unspecified)", "class": "middle interval"}
{"compound": "Cc1ccc(CC(NC(=O)CCl)c2ccccn2)cc1.Cl (stereo unspecified)", "class": "middle interval"}
{"compound": "CNC(=O)C1CCN(C(=O)CCl)CC1", "class": "high interval"}
{"compound": "CC1CN(c2ccc(NC(=O)CCl)cc2)CC(C)O1 (stereo unspecified)", "class": "low interval"}
{"compound": "O=C(CCl)Nc1cccc2ncccc12", "class": "high interval"}
{"compound": "O=C(CCl)N[C@H]1CCS(=O)(=O)c2ccccc21", "class": "middle interval"}
{"compound": "O=C(CCl)NC(Cn1ccccc1=O)c1ccccc1 (stereo unspecified)", "class": "high interval"}
{"compound": "Cc1cccn2cc(CCNC(=O)CCl)nc12.Cl", "class": "middle interval"}
{"compound": "O=C(CCl)Nc1ccc(Cl)c(F)c1", "class": "low interval"}
{"compound": "Cc1ccccc1CN(C)C(=O)CCl", "class": "middle interval"}
{"compound": "O=C(CCl)NCC(=O)N1CCCC1", "class": "middle interval"}
{"compound": "O=C(CCl)N1CCC(c2noc3cc(F)ccc23)CC1", "class": "low interval"}
{"compound": "Cc1cccnc1NC(=O)C1CCN(C(=O)CCl)CC1.Cl", "class": "high interval"}
{"compound": "CN1C(=O)c2ccc(NC(=O)CCl)cc2C1=O", "class": "high interval"}
{"compound": "O=C(CCl)N1CC=C(c2c[nH]c3ccccc23)CC1", "class": "low interval"}
{"compound": "Cc1ccc(C)c(Oc2ccc(CNC(=O)CCl)cn2)c1.Cl", "class": "low interval"}
{"compound": "O=C(CCl)N(C1=CCCCC1)C1CC1", "class": "low interval"}
{"compound": "Cc1ccn2cc(CNC(=O)CCl)nc2c1.Cl", "class": "middle interval"}
{"compound": "COc1ccc(-c2csc(NC(=O)CCl)n2)cc1", "class": "low interval"}
{"compound": "O=C(CCl)N1CCCC2CCCCC21 (stereo unspecified)", "class": "middle interval"}
{"compound": "Cc1cccc(NC(=O)[C@@H]2CCCN2C(=O)CCl)n1", "class": "middle interval"}
{"compound": "N#Cc1ccc(Cl)cc1NC(=O)CCl", "class": "high interval"}
{"compound": "C[C@H]1CN(C(=O)CCl)CCN1C(=O)c1cnn(C)c1.Cl", "class": "middle interval"}
{"compound": "O=C(CCl)N(C1CCCC1)C1CCS(=O)(=O)C1 (stereo unspecified)", "class": "high interval"}
{"compound": "O=C(CCl)N1CCc2ccccc2C(O)C1 (stereo unspecified)", "class": "low interval"}
{"compound": "Cl.O=C(CCl)N1CCCC(c2ncc[nH]2)C1 (stereo unspecified)", "class": "high interval"}
{"compound": "O=C(CCl)Nc1cc2c(cc1Cl)OCCO2", "class": "middle interval"}
{"compound": "O=C(CCl)N1CCC[C@@H]1c1ccon1", "class": "middle interval"}
{"compound": "NC(=O)C1CCCCN1C(=O)CCl (stereo unspecified)", "class": "high interval"}
{"compound": "CC1Cc2ccccc2N1C(=O)CCl (stereo unspecified)", "class": "middle interval"}
{"compound": "O=C(CCl)N1CCC(C(=O)N2CCCC2)CC1", "class": "high interval"}
{"compound": "CC(NC(=O)CCl)c1ccc2[nH]ncc2c1 (stereo unspecified)", "class": "high interval"}
{"compound": "CCCn1nccc1NC(=O)CCl", "class": "high interval"}
{"compound": "CCC(NC(=O)CCl)c1ccc(Cl)cc1 (stereo unspecified)", "class": "low interval"}
{"compound": "O=C(CN1CCN(C(=O)CCl)CC1)Nc1cccc(F)c1", "class": "middle interval"}
{"compound": "CC(=O)Nc1ccc(NC(=O)CCl)cc1", "class": "middle interval"}
{"compound": "CN(CCc1ncc(Br)cn1)C(=O)CCl.Cl", "class": "middle interval"}
{"compound": "CC1(NC(=O)CCl)CCS(=O)(=O)C1 (stereo unspecified)", "class": "low interval"}
{"compound": "O=C(CCl)N1CCC(OCc2ccccc2F)CC1", "class": "middle interval"}
{"compound": "CCN1C(=O)C2CN(C(=O)CCl)CCN2C1=O (stereo unspecified)", "class": "high interval"}
{"compound": "O=C(CCl)N1CCC(c2ccn[nH]2)C1 (stereo unspecified)", "class": "low interval"}
{"compound": "O=C(CCl)Nc1ccc2c(c1)OC(F)(F)O2", "class": "low interval"}
{"compound": "Cc1ccc(CN(C)C(=O)CCl)o1", "class": "low interval"}
{"compound": "O=C(CCl)Nc1nnc(CC(F)(F)F)o1", "class": "middle interval"}
{"compound": "O=C(CCl)N1CCN(C(=O)Nc2ccccc2)CC1", "class": "high interval"}
{"compound": "Cc1cnc2[nH]cc(CCNC(=O)CCl)c2c1", "class": "low interval"}
{"compound": "C[C@@H](NC(=O)CCl)c1cccc(C#N)c1", "class": "high interval"}
{"compound": "O=C(CCl)NCCc1ccc2c(c1)OCCO2", "class": "high interval"}
{"compound": "Cc1nc(CC2CCN(C(=O)CCl)CC2)no1", "class": "low interval"}
{"compound": "O=C(CCl)N1CC2(CCOCC2)C1", "class": "high interval"}
{"compound": "C/C(=C\\CNC(=O)CCl)c1cnn(C)c1.Cl", "class": "high interval"}
{"compound": "O=C(CCl)NC1CCC(C(F)(F)F)CC1 (stereo unspecified)", "class": "high interval"}
{"compound": "Cl.O=C(CCl)N1CC(c2ccc(Br)cn2)C1", "class": "low interval"}
{"compound": "O=C(CCl)N1CCOC(c2cccc(F)c2)C1 (stereo unspecified)", "class": "low interval"}
{"compound": "O=C(CCl)Nc1cc(Cl)ccc1-n1cncn1", "class": "middle interval"}
